Target: T1, P26 (human, UniProt P02771 381-609, limits assumed)
T1 construct: also called AFP p26
T1 sequence: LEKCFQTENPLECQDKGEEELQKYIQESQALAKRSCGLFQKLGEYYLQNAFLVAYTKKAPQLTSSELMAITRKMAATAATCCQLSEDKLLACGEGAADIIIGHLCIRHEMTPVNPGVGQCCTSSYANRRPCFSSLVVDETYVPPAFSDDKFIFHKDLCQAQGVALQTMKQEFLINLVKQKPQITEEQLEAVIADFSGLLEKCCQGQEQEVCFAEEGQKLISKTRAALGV
Test: ELISA, format not described
Design: unit not given here
measure: ELISA_avg
Numbers only.

Worked examples, 5 binders total:
1) D domain SEQ ID NO: 897 (designed binder) MGSWSEFHTRLDAIDTRLWALGGSEAELAAFEKEIAAFESELQAYKGKGNPEVEDLRRHAAAIRFWLQAYRHN | 23.5
2) D domain SEQ ID NO: 883 (designed binder) MGSWNEFFQRLNAIDERLWALGGSEAELAAFEKEIAAFESELQAYKGKGNPEVEDLRQHAANIRWWLQAYRHN | 28.7
3) D domain SEQ ID NO: 888 (designed binder) MGSWTEFQNRLNAIDHRLWALGGSEAELAAFEKEIAAFESELQAYKGKGNPEVESLREHAAKIRVWLQAYRHN | 30.5
4) D domain SEQ ID NO: 964 (designed binder) MGSWFVFKEDLAGIKFILEALGGSEAELAMFETDIAWFEYMLQYYKGKGNPEVEALRKEAAAIRDELQAYRHN | 14.2
5) D domain SEQ ID NO: 902 (designed binder) MGSWYEFYKRLEAIDNRLYALGGSEAELAAFEKEIAAFESELQAYKGKGNPEVEYLREHAAAIRHWLQAYRHN | 30.8

Batch request: ELISA_avg per item, same order as input.
1. D domain SEQ ID NO: 901 (designed binder) MGSWMEFNHRLQAIDGRLWALGGSEAELAAFEKEIAAFESELQAYKGKGNPEVEMLREHAAAIRAFLQAYRHN
2. D domain SEQ ID NO: 890 (designed binder) MGSWYEFQQRLEAIDTRLWALGGSEAELAAFEKEIAAFESELQAYKGKGNPEVEELREHAAHIRHWLQAYRHN
3. D domain SEQ ID NO: 933 (designed binder) MGSWAYFKGQLAYIKSGLEALGGSEAELAYFELRIAYFEHWLQNYKGKGNPEVEALRKEAAAIRDELQAYRHN
4. D domain SEQ ID NO: 853 (designed binder) MGSWMEFFDRLVAIDERLWALGGSEAELAAFEKEIAAFESELQAYKGKGNPEVEYLRMWAAEIRFLLQAYRHN
5. D domain SEQ ID NO: 930 (designed binder) MGSWLYFKYNLAVIKHWLEALGGSEAELAIFEMSIADFEYELQWYKGKGNPEVEALRKEAAAIRDELQAYRHN

Response:
1. 33.4
2. 27.3
3. 11.4
4. 18.6
5. 13.3
